These entries and their values trace back to PubChem BioAssay AID1963963.

Test system: 958667-338-R-J2-PDC tumor spheroids viability;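 note: spheroids exposed to compounds for seven days before readout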
Protocol Text: Anticancer human tumor 958667-338-R-J2-PDC patient-derived colon adenocarcinoma cell line growth inhibition [PI3K]
Experimental Conditions: second compound 0.0316 µM; first compound 0.000316 µM; active compounds read low; spheroids with HUVEC and MSC
Measurement Type: viability, T/C

>>> df
                                    compound  measurement_type  reported_result
 0  Cn1ncnc1[C@H]1c2n[nH]c(=O)c3cc(F)cc(c23)N[C@@H]1c1ccc(F)cc1 + COc1c(OCCCN2CCOCC2)ccc2c3n(c(=NC(=O)c4cnc(N)nc4)nc12)CCN3    viability, T/C            69.4%
 1  CC(C)n1nc(-c2ccc3oc(N)nc3c2)c2c(N)ncnc21 + CC(Nc1ncnc2nc[nH]c12)c1cc2cccc(Cl)c2c(=O)n1-c1ccccc1    viability, T/C            96.8%
 2  CC(=O)c1c(C)c2cnc(Nc3ccc(N4CCNCC4)cn3)nc2n(C2CCCC2)c1=O + CC(Nc1ncnc2nc[nH]c12)c1cc2cccc(Cl)c2c(=O)n1-c1ccccc1    viability, T/C             106%
 3  CC(=O)c1c(C)c2cnc(Nc3ccc(N4CCNCC4)cn3)nc2n(C2CCCC2)c1=O + Cc1nc(NC(=O)N2CCCC2C(N)=O)sc1-c1ccnc(C(C)(C)C(F)(F)F)c1    viability, T/C             104%
 4  CC(C)n1nc(-c2ccc3oc(N)nc3c2)c2c(N)ncnc21 + COc1c(OCCCN2CCOCC2)ccc2c3n(c(=NC(=O)c4cnc(N)nc4)nc12)CCN3    viability, T/C            69.6%
 5  CC(=O)c1c(C)c2cnc(Nc3ccc(N4CCNCC4)cn3)nc2n(C2CCCC2)c1=O + COc1c(OCCCN2CCOCC2)ccc2c3n(c(=NC(=O)c4cnc(N)nc4)nc12)CCN3    viability, T/C            75.7%
 6  Cn1ncnc1[C@H]1c2n[nH]c(=O)c3cc(F)cc(c23)N[C@@H]1c1ccc(F)cc1 + CC(Nc1ncnc2nc[nH]c12)c1cc2cccc(Cl)c2c(=O)n1-c1ccccc1    viability, T/C             103%
 7  CC(=O)c1c(C)c2cnc(Nc3ccc(N4CCNCC4)cn3)nc2n(C2CCCC2)c1=O + CC(Nc1ccc2c(c1)OCCn1cc(N3C(=O)OCC3C(F)F)nc1-2)C(N)=O    viability, T/C            97.3%
 8  Cn1ncnc1[C@H]1c2n[nH]c(=O)c3cc(F)cc(c23)N[C@@H]1c1ccc(F)cc1 + CC(Nc1ccc2c(c1)OCCn1cc(N3C(=O)OCC3C(F)F)nc1-2)C(N)=O    viability, T/C            82.8%
 9  CC(C)n1nc(-c2ccc3oc(N)nc3c2)c2c(N)ncnc21 + CC(Nc1ccc2c(c1)OCCn1cc(N3C(=O)OCC3C(F)F)nc1-2)C(N)=O    viability, T/C            99.5%
10  Cn1ncnc1[C@H]1c2n[nH]c(=O)c3cc(F)cc(c23)N[C@@H]1c1ccc(F)cc1 + Cc1nc(NC(=O)N2CCCC2C(N)=O)sc1-c1ccnc(C(C)(C)C(F)(F)F)c1    viability, T/C            98.7%
11  CC(C)n1nc(-c2ccc3oc(N)nc3c2)c2c(N)ncnc21 + Cc1nc(NC(=O)N2CCCC2C(N)=O)sc1-c1ccnc(C(C)(C)C(F)(F)F)c1    viability, T/C              94%
